All figures here come from patent US12581252B2.

So I've got a bunch of compounds here, and I need their pIC50 values.
SYSTEM TESTED: H1047R PIK3CA enzyme (Homo sapiens, UniProt P42336, H1047R)
Sequence (P42336 whole entry H1047R): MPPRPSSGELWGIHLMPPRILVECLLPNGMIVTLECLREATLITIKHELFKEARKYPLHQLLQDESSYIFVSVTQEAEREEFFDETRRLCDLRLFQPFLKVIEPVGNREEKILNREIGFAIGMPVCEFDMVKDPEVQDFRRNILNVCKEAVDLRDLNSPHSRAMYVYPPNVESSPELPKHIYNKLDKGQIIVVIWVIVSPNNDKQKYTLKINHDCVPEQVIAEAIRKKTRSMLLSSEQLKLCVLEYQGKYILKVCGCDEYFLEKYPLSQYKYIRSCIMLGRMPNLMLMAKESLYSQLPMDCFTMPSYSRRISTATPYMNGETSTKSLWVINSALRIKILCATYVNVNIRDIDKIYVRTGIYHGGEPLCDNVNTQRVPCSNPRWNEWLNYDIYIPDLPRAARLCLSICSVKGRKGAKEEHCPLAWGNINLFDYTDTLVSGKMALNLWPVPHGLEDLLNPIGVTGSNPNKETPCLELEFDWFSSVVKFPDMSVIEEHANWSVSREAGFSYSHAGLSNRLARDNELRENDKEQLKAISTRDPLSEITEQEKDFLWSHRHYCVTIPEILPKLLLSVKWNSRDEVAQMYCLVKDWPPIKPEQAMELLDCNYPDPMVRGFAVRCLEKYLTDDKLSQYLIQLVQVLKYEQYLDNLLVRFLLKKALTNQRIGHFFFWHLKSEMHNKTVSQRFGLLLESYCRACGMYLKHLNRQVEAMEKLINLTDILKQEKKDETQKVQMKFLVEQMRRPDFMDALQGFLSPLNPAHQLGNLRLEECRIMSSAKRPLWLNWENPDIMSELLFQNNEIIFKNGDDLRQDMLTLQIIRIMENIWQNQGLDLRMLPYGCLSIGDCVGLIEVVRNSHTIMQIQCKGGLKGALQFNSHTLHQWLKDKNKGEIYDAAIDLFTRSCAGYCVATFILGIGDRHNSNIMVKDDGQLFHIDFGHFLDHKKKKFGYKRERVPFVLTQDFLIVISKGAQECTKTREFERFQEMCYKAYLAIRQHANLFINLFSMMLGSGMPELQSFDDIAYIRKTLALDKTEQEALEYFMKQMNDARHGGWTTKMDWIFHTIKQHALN
Sequence (P27986 whole entry partner): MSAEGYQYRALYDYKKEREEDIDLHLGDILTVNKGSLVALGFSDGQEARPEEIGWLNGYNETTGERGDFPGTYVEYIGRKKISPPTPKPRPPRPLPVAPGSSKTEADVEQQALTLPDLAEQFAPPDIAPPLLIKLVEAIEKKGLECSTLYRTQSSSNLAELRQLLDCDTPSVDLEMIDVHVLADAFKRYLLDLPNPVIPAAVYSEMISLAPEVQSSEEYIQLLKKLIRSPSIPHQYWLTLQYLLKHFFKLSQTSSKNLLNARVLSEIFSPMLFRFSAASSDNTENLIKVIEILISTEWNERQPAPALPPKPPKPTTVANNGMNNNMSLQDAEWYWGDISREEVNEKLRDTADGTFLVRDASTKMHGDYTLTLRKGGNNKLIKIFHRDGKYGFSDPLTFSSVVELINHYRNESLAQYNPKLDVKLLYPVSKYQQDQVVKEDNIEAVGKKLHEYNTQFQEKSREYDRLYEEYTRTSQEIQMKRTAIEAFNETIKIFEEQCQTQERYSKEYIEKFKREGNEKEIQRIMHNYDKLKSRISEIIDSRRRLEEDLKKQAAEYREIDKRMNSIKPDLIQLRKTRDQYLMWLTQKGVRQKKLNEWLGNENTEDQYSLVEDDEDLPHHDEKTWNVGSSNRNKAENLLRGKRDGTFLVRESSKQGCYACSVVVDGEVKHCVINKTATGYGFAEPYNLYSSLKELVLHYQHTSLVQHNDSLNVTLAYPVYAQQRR
ASSAY OVERVIEW: ADP-Glo Biochemical PIK3CA Kinase Assay
pIC50: −log10 of the molar value.

[ask] Give the measured pIC50 of CCC(CC(=O)Nc1cccc2c1C(c1cc(F)ccc1Cl)NC2=O)C(C)C(F)(F)F (stereo not drawn) [Compound I-2193] .
[reply] 5.00 to 6.00

[ask] Give the measured pIC50 of O=C(Nc1cc(Br)cc2c1C(c1cc(F)ccc1Cl)NC2=O)c1cc(F)cc(Cl)c1Cl (stereo not drawn) [Compound I-816] .
[reply] 6.30 to 7.00

[ask] Give the measured pIC50 of Cc1ncc(-c2cc(NC(=O)c3cc(F)cc(C(F)(F)F)c3)c3c(c2)C(=O)NC3c2cc(F)ccc2Cl)c(N)n1 (stereo not drawn) [Compound I-1122] .
[reply] ≥ 7.00

[ask] Give the measured pIC50 of O=C(Nc1cc(-c2ccn3ncnc3c2)cc2c1[C@H](c1cc(F)ccc1Cl)NC2=O)c1cc(F)cc(C(F)(F)F)c1 (stereo in doubt) [Compound I-1597] .
[reply] ≥ 7.00

[ask] Give the measured pIC50 of O=C1NC(c2cc(F)ccc2Cl)c2c(Nc3nccc4ccsc34)cc(Br)cc21 (stereo not drawn) [Compound I-1461] .
[reply] 4.00 to 5.00

[ask] Give the measured pIC50 of O=C1NC(c2cc(F)ccc2Cl)c2c(NC(=O)N3CCCc4ccc(Cl)cc43)cc(Br)cc21 (stereo not drawn) [Compound I-992] .
[reply] 5.00 to 6.00

[ask] Give the measured pIC50 of O=C(Nc1cc(-c2ccc3nc(C(F)F)cn3c2)cc2c1C(c1cc(F)ccc1Cl)NC2=O)c1cc(F)cc(C(F)(F)F)c1 (stereo not drawn) [Compound I-1864] .
[reply] ≥ 7.00

[ask] Give the measured pIC50 of Nc1nnc2ccc(-c3cc(NC(=O)c4cc(F)cc(C(F)(F)F)c4)c4c(c3)C(=O)N[C@@H]4c3cc(F)ccc3Cl)cn12 [Compound I-1448] .
[reply] 6.00 to 6.30

[ask] Give the measured pIC50 of CCc1cc(F)cc(C(=O)Nc2cc(Br)cc3c2C(c2ccccc2C)NC3=O)c1 (stereo not drawn) [Compound I-608] .
[reply] 6.00 to 6.30
